Source listed as patent US8389526B2.

Target: c-Met (Homo sapiens, UniProt P08581)
Construct: adapted to measure the phosphorylation of endogenous cellular proteins in cell lysates; endogenous in cells
Sequence (P08581 25-1390): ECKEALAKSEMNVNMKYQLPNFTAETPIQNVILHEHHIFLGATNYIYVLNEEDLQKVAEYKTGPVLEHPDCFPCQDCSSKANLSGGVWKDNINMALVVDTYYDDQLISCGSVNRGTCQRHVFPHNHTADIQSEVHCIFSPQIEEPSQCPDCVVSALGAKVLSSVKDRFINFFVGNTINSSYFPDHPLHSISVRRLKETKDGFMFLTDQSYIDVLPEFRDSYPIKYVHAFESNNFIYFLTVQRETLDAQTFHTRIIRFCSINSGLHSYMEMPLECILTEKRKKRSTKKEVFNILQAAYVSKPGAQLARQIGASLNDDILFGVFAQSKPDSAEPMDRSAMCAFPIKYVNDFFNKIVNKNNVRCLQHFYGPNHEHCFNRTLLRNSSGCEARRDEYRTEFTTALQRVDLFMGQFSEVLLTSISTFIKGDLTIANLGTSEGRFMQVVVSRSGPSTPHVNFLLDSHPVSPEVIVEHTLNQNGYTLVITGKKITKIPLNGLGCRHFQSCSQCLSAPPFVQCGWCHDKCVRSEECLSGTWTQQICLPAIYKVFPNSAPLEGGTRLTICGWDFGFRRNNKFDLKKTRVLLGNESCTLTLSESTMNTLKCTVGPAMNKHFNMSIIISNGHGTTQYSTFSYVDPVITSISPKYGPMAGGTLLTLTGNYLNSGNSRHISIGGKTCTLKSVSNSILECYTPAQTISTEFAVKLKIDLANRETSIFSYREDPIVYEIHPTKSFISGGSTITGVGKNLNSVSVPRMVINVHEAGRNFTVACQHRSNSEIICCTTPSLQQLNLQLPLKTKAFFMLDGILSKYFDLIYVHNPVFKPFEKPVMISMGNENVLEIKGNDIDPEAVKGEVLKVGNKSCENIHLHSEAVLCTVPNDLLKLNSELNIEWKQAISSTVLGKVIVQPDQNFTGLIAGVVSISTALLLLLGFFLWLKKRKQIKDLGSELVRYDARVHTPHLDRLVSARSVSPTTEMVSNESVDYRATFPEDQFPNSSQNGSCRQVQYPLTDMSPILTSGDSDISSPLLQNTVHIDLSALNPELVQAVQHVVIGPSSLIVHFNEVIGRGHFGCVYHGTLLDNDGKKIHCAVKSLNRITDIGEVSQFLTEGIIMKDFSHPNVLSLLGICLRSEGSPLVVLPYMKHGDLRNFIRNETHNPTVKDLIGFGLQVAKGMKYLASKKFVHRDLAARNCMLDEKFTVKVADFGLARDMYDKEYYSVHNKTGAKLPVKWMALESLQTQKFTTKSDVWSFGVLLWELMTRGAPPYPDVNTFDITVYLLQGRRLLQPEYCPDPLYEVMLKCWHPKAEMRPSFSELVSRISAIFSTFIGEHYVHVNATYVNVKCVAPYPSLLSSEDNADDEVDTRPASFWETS
Assay: GTL-16 c-Met autophosphorylation measured by AlphaScreen detection
Conditions: GTL-16 cells, 1 h incubation, AlphaScreen p-c-Met; read-out: GTL-16 IC50 c-Met phosphorylation
measure name: IC50 (nM)
Numbers only, in nM.

Take each entry in turn and give its IC50.
1. C[C@@H](c1cc2cnn(C)c2cc1F)c1cnc2ccc(N3CCN(C)C(=O)C3)nn12
2. CC(c1c(F)cc2ncccc2c1F)c1cnc2ccc(N3CCN(C(N)=O)CC3)nn12 (racemic)
3. O=C1CN(c2ccc3ncc(Cc4c(F)cc5ncccc5c4F)n3n2)CCN1
4. C[C@@H](c1c(F)cc2ncccc2c1F)c1cnc2ccc(N3CCN(C(N)=O)CC3)nn12

Solution:
[10, 8.3, 4.7, 5.5]

----------
Target: c-Met (Homo sapiens)
Construct: adapted to measure the phosphorylation of endogenous cellular proteins in cell lysates; endogenous in cells
Experiment: GTL-16 c-Met autophosphorylation measured by AlphaScreen detection
Settings: GTL-16 cells, 1 h incubation, AlphaScreen p-c-Met; read-out: GTL-16 IC50 c-Met phosphorylation
Exercise: state measured pIC50 for each of the molecules provided.
Numbers only, as −log10 of the molar value.

>  <molecule>
O=CN1CCN(c2ccc3ncc(Cc4c(F)cc5ncccc5c4F)n3n2)CC1 [Example 35]

>  <pIC50>
8.10

$$$$
>  <molecule>
C[C@@H](c1c(F)cc2ncccc2c1F)c1cnc2ccc(N3CCNC(=O)[C@H]3C)nn12 [Example 59]

>  <pIC50>
8.44

$$$$
>  <molecule>
CC(=O)N1CCN(c2ccc3ncc(Cc4c(F)cc5ncccc5c4F)n3n2)CC1 [Example 34]

>  <pIC50>
8.15

$$$$
>  <molecule>
CC(c1c(F)cc2ncccc2c1F)c1cnc2ccc(N3CCN(C4CCCC4)C(=O)C3)nn12 (racemic) [Example 20]

>  <pIC50>
8.15

$$$$
>  <molecule>
C[C@@H](c1c(F)cc2ncccc2c1F)c1cnc2ccc(N3CCNCC3)nn12 [Example 7]

>  <pIC50>
8.68

$$$$

Take each entry in turn and give its pIC50.
1. CC(=O)N1CCN(c2ccc3ncc(C(C)c4cc5cccnc5cc4F)n3n2)CC1 (racemic) [Example 42]
2. C[C@@H](c1c(F)cc2ncccc2c1F)c1cnc2ccc(N3CCN(C)C(=O)C3)nn12 [Example 2]

Solution:
[7.41, 8.57]

----------
c-Met receptor tyrosine kinase, GST-c-Met(969-1390) (Homo sapiens): recorded IC50 for assorted compounds
One number for each entry, in nM.

See these solved cases before continuing.
>  <compound>
CC(c1c(F)cc2ncccc2c1F)c1cnc2ccc(N3CCN(c4ccccc4)C(=O)C3)nn12 (racemic) [Example 22]

>  <unit name>
nM

>  <IC50>
14

$$$$
>  <compound>
CC(c1c(F)cc2c(cnn2C)c1F)c1cnc2ccc(N3CCN(C)C(=O)C3)nn12 (racemic) [Example 49]

>  <unit name>
nM

>  <IC50>
16

$$$$
>  <compound>
CN1CCN(c2ccc3ncc(Cc4c(F)cc5ncccc5c4F)n3n2)CC1=O [Example 30]

>  <unit name>
nM

>  <IC50>
6.6

$$$$
>  <compound>
CC(c1ccc2ncccc2c1F)c1cnc2ccc(N3CCN(C)C(=O)C3)nn12 (racemic) [Example 46]

>  <unit name>
nM

>  <IC50>
30

$$$$
>  <compound>
CC(c1c(F)cc2ncccc2c1F)c1cnc2ccc(N3CCN(C4CCCC4)C(=O)C3)nn12 (racemic) [Example 20]

>  <unit name>
nM

>  <IC50>
27

$$$$
>  <compound>
C[C@@H](c1c(F)cc2ncccc2c1F)c1cnc2ccc(N3CCN(C(N)=O)CC3)nn12 [Example 16]

>  <unit name>
nM

>  <IC50>
1.7

$$$$

Now let's try a different one.
Exercise: Query (compound): CC(=O)N1CCN(c2ccc3ncc(C(C)c4ccc5ncccc5c4F)n3n2)CC1 (racemic) [Example 48] ; field requested: IC50
Solution: 140
